Give cytotoxicity log GI50 for every item shown.
- Test system: UACC-62
- TEST_PROTOCOL: in vitro melanoma cell growth inhibition (NCI screen)
A number alone suffices; assume M.

Query string: Sample Cc1nc2c(n1CC(C)C)C(=O)c1ccccc1C2=O [Compound 7] — what was its cytotoxicity log GI50?
Result string: -4.68

Query string: Also CCC(C)(C)NC1=C(NC(C)=O)C(=O)c2ccccc2C1=O [Compound 36] , if possible.
Result string: -4.60

Query string: Next: COc1ccc(Cn2c(C)nc3c2C(=O)c2ccccc2C3=O)cc1 [Compound 18]
Result string: -5.34

Query string: Input CCNC1=C(NC(=O)c2ccc(F)cc2)C(=O)c2ccccc2C1=O [Compound 48]
Result string: -4.82

Query string: Next up: CC(=O)NC1=C(NC(C)(C)C)C(=O)c2ccccc2C1=O [Compound 32]
Result string: -4.86
